Provenance of the data: ChEMBL document CHEMBL1201862

# System: OVCAR-8
# TEST NAME: NCI tumour cell line growth inhibition, 48 h
Activity calls are given as the source filed them. Rule as the data show it: active = GI50 up to about 1.1 µM and inactive = higher.
Reported values of GI50 for individual entries
REPORTED ENDPOINT: GI50

INSERT INTO results (molecule, result) VALUES
  ('Cc1cnc2nc(-c3sccc3C)cc(O)c2c1', '4.06 µM (inactive)'),
  ('C=C=C(C)C(=O)N(C(C)C)C(C)C', '> 100 µM (inactive)'),
  ('CC(=O)OCCCCn1cnc2nc(Nc3ccccc3)nc(Cl)c21', '> 100 µM (inactive)'),
  ('CCOC(=O)/C=C(/C(=O)OCC)n1ccc(=O)n(Cc2cnnn2CCCCOC(C)=O)c1=O', '> 100 µM (inactive)'),
  ('CCOC(=O)c1ccc(OCc2nc3cc(C(F)(F)F)ccc3nc2-c2ccccc2)cc1', '> 100 µM (inactive)'),
  ('O=[N+]([O-])c1ccc(SN=S=NSc2cccc(SN=S=NSc3ccc([N+](=O)[O-])cc3)c2)cc1', '22.4 µM (inactive)'),
  ('CN1C(=O)N/C(=C\c2ccc(S(=O)(=O)N/N=C/c3ccccc3)cc2)C1=O', '28.5 µM (inactive)'),
  ('CCN1CCC(O)(/C=C/c2ccccc2C)C(C(=O)/C=C/c2ccccc2C)C1 (configuration not stated)', '2.71 µM (inactive)'),
  ('CC(C)(C)C1(COC(=O)c2ccc(N)cc2)COC1', '58.3 µM (inactive)'),
  ('CCOC(=O)[C@H](CCCNC(=O)OC(C)(C)C)NCc1ccc(OC)c(OC)c1', '> 100 µM (inactive)'),
  ('Cc1c2cc[n+](C)cc2c(C)c2c1[nH]c1ccc(O)cc12 [ELLIPTINIUM ACETATE]', '11.6 µM (inactive)'),
  ('C#CCn1c(=O)c(C#N)c(O)c2cc3ccccc3nc21', '> 100 µM (inactive)'),
  ('OC1(c2ccc(Cl)cc2)C(N2CCCC2)c2ccccc2C2=NCCN21 (configuration not stated)', '23.9 µM (inactive)'),
  ('NC(=S)N1N=C(c2ccc3c(c2)CCC3)CC1c1ccccc1 (configuration not stated)', '28.3 µM (inactive)'),
  ('COc1cccc(C2c3cc4c(cc3OC(N3CCCC3)C2C)OCO4)c1OC (configuration not stated)', '2.96 µM (inactive)'),
  ('Nc1c2c(nc3ccccc13)-c1ccccc1CC2', '4.37 µM (inactive)'),
  ('c1cn[nH]c1 [PYRAZOLE]', '> 10 µM (inactive)'),
  ('O=C1CN(c2ccc(Cl)cc2)C(=O)CN1CCN1CC(=O)N(c2ccc(Cl)cc2)CC1=O', '> 100 µM (inactive)'),
  ('CC(=O)[C@]12OC(=O)C3=C1[C@H](CC[C@@H]3C)[C@@H](C)C[C@H]2C=C(C)C', '8.49 µM (inactive)'),
  ('O=C(O)C1CCCN(CCc2c[nH]c3ccccc23)C1 (configuration not stated)', '> 100 µM (inactive)'),
  ('COc1cc(/C=C\c2ccccn2)cc(OC)c1OC', '> 100 µM (inactive)'),
  ('Cc1nc2c(O)cc3c4c(n(Cc5ccccc5)c3c2nc1C)C(=O)CCC4', '12.2 µM (inactive)');

====

# Tested on: LOX IMVI
# TEST NAME: NCI tumour cell line growth inhibition, 48 h
Calls of active or inactive are those of the source. Cut-off read from the data, not from the text of the source: active = GI50 up to about 1.1 µM and inactive = higher. Square brackets hold non-standard residues; d marks the D form. Peptide text beside a SMILES is read from it. * marks the point of attachment. Boc = CC(C)(C)OC(=O)*; OBn = c1ccc(CO*)cc1
Classes used: active, inactive

INSERT INTO results (molecule, assayed_system, label_value) VALUES
  ('O=C(NC1C(O)C(O)C(CO)OC1n1cc(F)c(=O)[nH]c1=O)OCc1ccccc1 (stereo not given)', 'LOX IMVI', 'inactive'),
  ('CCC(=O)C(c1ccccc1)c1ccccn1 (stereo not given)', 'LOX IMVI', 'inactive'),
  ('Cn1c(=O)c2[nH]c(CCC(=O)O)nc2n(C)c1=O', 'LOX IMVI', 'inactive'),
  ('COc1cc2cc(C(=O)N3CC(CCl)c4c3cc([N+](C)(C)Cc3ccc([N+](=O)[O-])n3C)c3ccccc43)[nH]c2c(OC)c1OC (stereo not given)', 'LOX IMVI', 'inactive'),
  ('NC(=S)N1N=C(c2ccc3c(c2)CCC3)CC1c1ccccc1 (stereo not given)', 'LOX IMVI', 'inactive'),
  ('Cc1cccc(NC(=O)C(=O)C(C(=O)c2ccc3ccccc3c2)C2OC(=O)c3ccccc32)c1C (stereo not given)', 'LOX IMVI', 'inactive'),
  ('C#Cc1nc(N)c2ncn(C3OC(COS(N)(=O)=O)C(O)C3O)c2n1 (stereo not given)', 'LOX IMVI', 'active'),
  ('CCCCC1=C(Br)C(=C(Br)Br)OC1=O', 'LOX IMVI', 'inactive'),
  ('CC1=CC(c2ccccc2)n2c(nc3cc4ccccc4cc32)N1 (stereo not given)', 'LOX IMVI', 'inactive'),
  ('N#CC(C#N)=C(N)/C(C#N)=C/c1ccc2[nH]ccc2c1', 'LOX IMVI', 'inactive'),
  ('C[C@@H](NC(=O)CNC(=O)OC(C)(C)C)C(=O)N[C@@H](Cc1ccccc1)C(=O)OCc1ccccc1 (Boc-Gly-[dA]-Phe-OBn)', 'LOX IMVI', 'inactive'),
  ('Nc1ccc(C2(c3ccc(N)cc3)C3CC4CC(C3)CC2C4)cc1', 'LOX IMVI', 'inactive'),
  ('O=C(c1ccco1)N(C(=S)OCc1ccccn1)c1ccccc1', 'LOX IMVI', 'inactive'),
  ('COc1cccc(C2c3cc4c(cc3OC(N3CCCC3)C2C)OCO4)c1OC (stereo not given)', 'LOX IMVI', 'inactive'),
  ('O=C(NCC(=O)N1CCCC1C(=O)OC(=O)C1CCCN1C(=O)CNC(=O)OCc1ccccc1)OCc1ccccc1 (stereo not given)', 'LOX IMVI', 'inactive'),
  ('N/N=C(\Nc1ccccc1)SCc1ccccc1', 'LOX IMVI', 'inactive'),
  ('CCCCCCC(/C=N/O)C(C)(O)CCC (stereo not given)', 'LOX IMVI', 'inactive'),
  ('O=C(O)C1(CC(CCCN2CCCCC2)c2ccccc2)CCCC1 (stereo not given)', 'LOX IMVI', 'inactive'),
  ('CCCNC(=O)CCC(C)C1CCC2C3C(C[C@H](OC(C)=O)[C@]12C)[C@@]1(C)CCC2(C[C@H]1C[C@H]3OC(C)=O)OOC1(CC[C@]3(C)C4C[C@H](OC(C)=O)[C@]5(C)C(C(C)CCC(=O)NCCC)CCC5C4[C@H](OC(C)=O)C[C@@H]3C1)OO2 (stereo not given in full)', 'LOX IMVI', 'inactive'),
  ('c1cncc(-c2cc(-c3cc(-c4cccnc4)[nH]n3)n[nH]2)c1', 'LOX IMVI', 'inactive');

====

Reported values of GI50 for individual entries
# Tested on: NCI-H23
# TEST NAME: NCI tumour cell line growth inhibition, 48 h
Active and inactive are the calls of the source. Rule as the data show it: active = GI50 up to about 1.1 µM and inactive = higher.
REPORTED ENDPOINT: GI50

INSERT INTO assay_data (compound, reported_endpoint, result) VALUES
  ('O=C(O)C(O)C(O)C(O)C(O)c1nc2ccccc2s1 (stereo not given)', 'GI50', '23.2 µM (inactive)'),
  ('O=C1/C(=C/c2ccc(O)c(O)c2)CCC/C1=C\c1ccc(O)c(O)c1', 'GI50', '2.76 µM (inactive)'),
  ('CCOC(=O)c1cc2c3c(c(C(C)=O)c(O)c2[nH]1)N(CC(C)CC)CC3 (stereo not given)', 'GI50', '44.9 µM (inactive)'),
  ('CC(C)C(=O)CC(c1ccc(Cl)cc1)N1N=C(C(C)C)CC1c1ccc(Cl)cc1 (stereo not given)', 'GI50', '22.6 µM (inactive)'),
  ('C=CCOc1ccccc1C1(O)c2ccccc2C2=NCCCN21 (stereo not given)', 'GI50', '30.8 µM (inactive)'),
  ('ClC1(Cl)C(c2ccccc2)C1c1ccccc1 (stereo not given)', 'GI50', '24.6 µM (inactive)'),
  ('Cn1ccc(C(=O)NCCN(CCNC(=O)c2ccn(C)c(=O)c2O)CCNC(=O)c2cccc(=O)n2O)c(O)c1=O', 'GI50', '> 100 µM (inactive)'),
  ('NCCCCN(CCCN)Cc1ccccc1', 'GI50', '> 100 µM (inactive)'),
  ('O=P1(C(O)c2ccccc2)N(Cc2ccccc2)[C@@H]2CCCC[C@H]2N1Cc1ccccc1 (stereo not given in full)', 'GI50', '47.9 µM (inactive)'),
  ('O=C(O)c1cc(C(=O)C(=O)c2cc(C(=O)O)c(O)c3ccccc23)c2ccccc2c1O', 'GI50', '> 100 µM (inactive)');

====

# Test system: UACC-62
# TEST NAME: NCI tumour cell line growth inhibition, 48 h
Active and inactive are the calls of the source. Cut-off read from the data, not from the text of the source: active = GI50 up to about 1.1 µM and inactive = higher.
Classes used: active, inactive

INSERT INTO results (compound, label_value) VALUES
  ('C=C=C(C)C(=O)N(C(C)C)C(C)C', 'inactive'),
  ('COC(OC)C1OC(CO)C(n2ccc(N)nc2=O)C1O (stereo not given)', 'inactive'),
  ('O=C(O)C1C2CCC(O2)C1C(=O)N1CCCCC1 (stereo not given)', 'inactive'),
  ('N#C/C(=C\c1ccc2[nH]ccc2c1)C(=O)c1ccc(O)c(O)c1', 'inactive'),
  ('CCCn1c(C23CC4CC(CC(C4)C2)C3)nc2ccc(Cl)cc2c1=O', 'inactive'),
  ('COc1cc(C(=O)N(C)N(C)C)cc(OC)c1OC', 'inactive'),
  ('[O-][S+](Nc1ccccc1)c1ccc(N2CCOCC2)cc1 (stereo not given)', 'inactive'),
  ('C(=N/c1ccccc1C1SCCCS1)/c1ccccc1', 'inactive'),
  ('COc1cc2cc(C(=O)N3CC(CCl)c4c3cc([N+](C)(C)Cc3ccc([N+](=O)[O-])n3C)c3ccccc43)[nH]c2c(OC)c1OC (stereo not given)', 'inactive'),
  ('Cn1c2c([N+](=O)[O-])cccc2c(=O)c2c(O)cc3c(c21)C=CC(C)(C)O3', 'inactive'),
  ('CCCCCCCCCC(=O)CC(=O)c1ccc(O)cc1O', 'inactive'),
  ('C#CCN(C(=O)C(F)(F)F)c1ccc(C(=O)c2ccc(N(CC#C)C(=O)C(F)(F)F)cc2)cc1', 'inactive'),
  ('CCC(=O)N/N=C(\C=C\c1cccc(O)c1)c1sc(Nc2ccc(C)cc2[N+](=O)[O-])nc1C', 'inactive'),
  ('COc1ccc(-c2nc(N)nc(-c3cc(C)ccc3O)c2Cl)cc1', 'inactive'),
  ('CN(C(=O)c1ccc2c(c1)sc1c(=O)n(C)c3ccccc3c12)c1ccccc1', 'inactive'),
  ('COC(=O)C1=C(C(=O)OC)C2OC1C1C2C2(C)C(C)=C(C)C1(C)[S+]2[O-] (stereo not given)', 'inactive'),
  ('CC1(C)SC2C(C(=O)O)N=C(Cc3ccccc3)N2C1C(=O)O (stereo not given)', 'inactive'),
  ('COc1cc(C2S/C(=C/c3ccccc3)C(=O)N2c2ccc(Cl)cc2)cc(OC)c1OC (stereo not given)', 'inactive'),
  ('O=[As](O)(O)c1cc(/N=N/c2ccc(-c3ccc(/N=N/c4cc([As](=O)(O)O)c(O)cc4O)cc3)cc2)c(O)cc1O', 'inactive'),
  ('CC(C)(C)OC(=O)NCC(c1c[nH]c2cc(Br)ccc12)c1c[nH]c2cc(Br)ccc12', 'inactive'),
  ('OCC(O)COCn1nncc1Cn1ncc2c(SCc3ccccc3)ncnc21 (stereo not given)', 'inactive'),
  ('COc1ccccc1/N=N/C(C(=O)c1ccccc1)C(=O)c1ccccc1', 'inactive'),
  ('Cc1cc(-c2nc3ccc(F)cc3s2)ccc1NC(=O)[C@H](C)N', 'inactive'),
  ('c1cc(CNCCN2CCNCC2)ccn1', 'inactive'),
  ('C#Cc1nc(N)c2ncn(C3OC(COS(N)(=O)=O)C(O)C3O)c2n1 (stereo not given)', 'active'),
  ('COc1ccccc1/C=C/c1nc2ccccc2o1', 'inactive'),
  ('CC1=NN2C(=O)CC(=O)N=C2S1', 'inactive'),
  ('O=[N+]([O-])c1ccc(C2c3c(O)nc(O)nc3Oc3nc(O)nc(O)c32)cc1', 'inactive'),
  ('COc1c2c(c(O)c3c4c(c(C)cc13)C1OC3(C(OC)OC5CC(C)(O)C(OC6CC(C)(O)C(O)C(C)O6)C(C)O5)OC1C(OC)(O4)C31CO1)C(=O)C(O)CC2OC1CC(C)(O)C(OC(C)=O)C(C)O1 (stereo not given)', 'active'),
  ('COc1cccc(C2c3cc4c(cc3OC(NNc3ccccc3)C2C)OCO4)c1O (stereo not given)', 'inactive'),
  ('Cn1cc(NC(=O)c2cc(NC(=O)c3cc(NC=O)cn3C)cn2C)cc1C(=O)NCCC(=N)N [STALLIMYCIN]', 'inactive'),
  ('CC1=C(C#N)C(=O)N(/N=C/c2ccc(Cl)cc2)C(=O)/C1=c1\o/c(=C2/C(=O)N(/N=C/c3ccc(Cl)cc3)C(=O)C(C#N)=C2C)c2nccnc12', 'inactive'),
  ('O=[N+]([O-])c1ccccc1S(=O)(=O)N1CCCc2cc(Cl)ccc21', 'inactive'),
  ('CC1=CC(c2ccccc2)n2c(nc3cc4ccccc4cc32)N1 (stereo not given)', 'inactive'),
  ('Cc1c(C)c2c(c(N)c1C#N)C(=O)N(OS(=O)(=O)c1ccccc1)C2=O', 'inactive'),
  ('CC(C)(C)[Si](C)(C)OC1CCOC1(O)c1ccccn1 (stereo not given)', 'inactive'),
  ('C=CCC1(c2ccc(OC)cc2)C=CC(=O)CC1 (stereo not given)', 'inactive'),
  ('C[Si](C)(C)C(CCCCSc1ccccc1)(Sc1ccccc1)Sc1ccccc1', 'inactive'),
  ('O=c1[nH]c(=O)n([C@@H]2O[C@H](CO)[C@@H](O)[C@H]2O)cc1F [5-FLUOROURIDINE]', 'active'),
  ('CN1CCC/C1=C1\C(=O)c2cccn2C1=O', 'inactive');
